biological target: human Cav3.2 channels (Homo sapiens, UniProt O95180); construct: human Cav3.2 channel ORF (Open Reading Frame) gene; experiment: T-type calcium blocking action: intracellular calcium (Fluo-4 AM fluorescence) in HEK293 cells steadily expressing human Cav3.2 channels; conditions: HEK293 cells expressing human Cav3.2; KCl-stimulated calcium influx, Fluo-4 fluorescence; Tables 1 to 3
Sequence (O95180 whole entry): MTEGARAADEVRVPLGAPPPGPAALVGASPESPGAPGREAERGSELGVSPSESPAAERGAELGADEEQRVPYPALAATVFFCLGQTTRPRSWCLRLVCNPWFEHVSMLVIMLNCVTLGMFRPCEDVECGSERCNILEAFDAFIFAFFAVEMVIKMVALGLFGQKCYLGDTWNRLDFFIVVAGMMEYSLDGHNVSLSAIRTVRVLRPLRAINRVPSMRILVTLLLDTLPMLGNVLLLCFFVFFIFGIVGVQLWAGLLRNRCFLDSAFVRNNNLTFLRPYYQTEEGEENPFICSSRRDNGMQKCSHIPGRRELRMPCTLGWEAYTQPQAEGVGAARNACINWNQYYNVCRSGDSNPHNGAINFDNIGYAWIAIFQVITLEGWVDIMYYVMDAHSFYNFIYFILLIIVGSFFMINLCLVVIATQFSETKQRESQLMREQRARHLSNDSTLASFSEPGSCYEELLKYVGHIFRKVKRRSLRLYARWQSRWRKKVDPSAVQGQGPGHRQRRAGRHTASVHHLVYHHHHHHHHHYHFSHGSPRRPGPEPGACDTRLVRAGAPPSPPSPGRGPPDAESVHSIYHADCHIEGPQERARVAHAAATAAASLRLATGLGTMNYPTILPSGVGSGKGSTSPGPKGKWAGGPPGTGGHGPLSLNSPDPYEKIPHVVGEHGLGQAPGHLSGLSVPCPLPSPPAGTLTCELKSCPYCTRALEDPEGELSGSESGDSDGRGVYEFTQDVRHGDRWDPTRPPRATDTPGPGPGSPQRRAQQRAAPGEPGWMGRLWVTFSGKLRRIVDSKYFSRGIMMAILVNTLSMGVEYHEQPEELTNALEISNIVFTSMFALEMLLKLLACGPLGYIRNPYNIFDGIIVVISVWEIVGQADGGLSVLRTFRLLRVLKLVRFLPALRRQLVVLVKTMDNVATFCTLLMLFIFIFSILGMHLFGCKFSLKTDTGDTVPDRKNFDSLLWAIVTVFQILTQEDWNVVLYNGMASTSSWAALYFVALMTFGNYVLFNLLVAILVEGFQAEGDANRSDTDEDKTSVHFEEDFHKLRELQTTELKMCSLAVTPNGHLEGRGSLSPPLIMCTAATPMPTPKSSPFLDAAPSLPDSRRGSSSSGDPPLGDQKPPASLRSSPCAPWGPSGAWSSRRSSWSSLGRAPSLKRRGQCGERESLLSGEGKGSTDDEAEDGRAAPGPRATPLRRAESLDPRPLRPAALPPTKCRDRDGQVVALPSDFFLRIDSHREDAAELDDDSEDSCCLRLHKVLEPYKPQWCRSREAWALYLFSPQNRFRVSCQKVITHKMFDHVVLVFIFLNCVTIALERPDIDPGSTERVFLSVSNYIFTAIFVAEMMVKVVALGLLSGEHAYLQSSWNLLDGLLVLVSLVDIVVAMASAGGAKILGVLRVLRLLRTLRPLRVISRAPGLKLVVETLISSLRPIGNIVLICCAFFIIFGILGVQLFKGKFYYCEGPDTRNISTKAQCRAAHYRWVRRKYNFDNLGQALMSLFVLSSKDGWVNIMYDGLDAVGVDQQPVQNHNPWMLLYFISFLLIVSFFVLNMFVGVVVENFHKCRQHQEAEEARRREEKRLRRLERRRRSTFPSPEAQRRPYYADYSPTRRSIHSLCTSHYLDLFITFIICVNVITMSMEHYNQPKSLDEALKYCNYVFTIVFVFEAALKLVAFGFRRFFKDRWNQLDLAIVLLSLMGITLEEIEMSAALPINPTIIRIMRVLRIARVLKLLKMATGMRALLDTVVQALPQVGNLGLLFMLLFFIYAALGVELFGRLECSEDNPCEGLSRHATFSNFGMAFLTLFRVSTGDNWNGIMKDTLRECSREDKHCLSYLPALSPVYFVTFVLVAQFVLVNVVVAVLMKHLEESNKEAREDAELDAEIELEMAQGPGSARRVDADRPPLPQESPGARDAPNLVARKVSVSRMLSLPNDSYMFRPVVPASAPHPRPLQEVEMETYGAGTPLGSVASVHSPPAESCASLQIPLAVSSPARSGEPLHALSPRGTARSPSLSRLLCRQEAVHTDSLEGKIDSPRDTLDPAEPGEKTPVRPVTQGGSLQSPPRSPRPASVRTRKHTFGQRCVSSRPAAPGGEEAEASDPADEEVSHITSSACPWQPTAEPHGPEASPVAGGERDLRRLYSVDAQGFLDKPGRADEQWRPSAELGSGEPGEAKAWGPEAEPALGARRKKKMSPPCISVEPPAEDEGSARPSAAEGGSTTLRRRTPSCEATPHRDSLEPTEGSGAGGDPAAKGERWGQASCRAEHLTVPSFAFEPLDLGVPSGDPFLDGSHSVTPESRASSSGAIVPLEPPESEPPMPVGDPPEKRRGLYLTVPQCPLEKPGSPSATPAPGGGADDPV
ASSAY_ENDPOINT: IC50 (nM)

Answered examples (5):
# COMPOUND, EXPERIMENTAL_SYSTEM, IC50 / nM
rows = [
    ("COC(=O)C1(NC(=O)Cc2ccc(N3CCOCC3)cc2)CCN(c2cncc(C(F)(F)F)c2)C1 (stereo not shown) [Example 41]", "human Cav3.2 channels (Homo sapiens, UniProt O95180)", 25),
    ("Cn1ncc2cc(CC(=O)N[C@@H]3CCN(c4ccc(C(F)(F)F)nc4)C3)ccc21 [Example 144]", "human Cav3.2 channels (Homo sapiens, UniProt O95180)", 22),
    ("O=C(N[C@@H]1CCN(c2cncc(C(F)(F)F)c2)C1)C1CC1c1ccc(Br)cc1 (single isomer, unassigned) [Example 100A]", "human Cav3.2 channels (Homo sapiens, UniProt O95180)", 9.3),
    ("O=C(N[C@@H]1CCN(c2ccc(C(F)(F)F)nc2)C1)[C@H]1C[C@@H]1c1nc2ccccc2n1C1CC1 [Example 73]", "human Cav3.2 channels (Homo sapiens, UniProt O95180)", 1000),
    ("O=C(Cc1ccc2ocnc2c1)N[C@@H]1CCN(c2cncc(C(F)(F)F)c2)C1 [Example 152]", "human Cav3.2 channels (Homo sapiens, UniProt O95180)", 1300),
]

A = CC1(C)CN(c2ccc(CC(=O)N[C@@H]3CCN(c4cncc(C(F)(F)F)c4)C3)cc2)CCO1 [Example 145]
B = Cc1nc2cc(CC(=O)N[C@@H]3CCN(c4ccc(C(F)(F)F)nc4)C3)ccc2o1 [Example 154]
C = CN(C)c1ccc(CC(=O)N[C@@H]2CCN(c3cncc(C(F)(F)F)c3)C2)cc1 [Example 29]
Order the entries by their reported IC50, beginning at the minimum. Record the ranking as a list of labels in the requested order.
C, A, B
(C: 40 nM, A: 130 nM, B: 1000 nM)

I = O=C(Cc1ccc(N2CCCC2)cc1)N[C@@H]1CCN(c2cncc(C(F)(F)F)c2)C1 [Example 87]
II = O=C(N[C@@H]1CCN(c2cncc(Br)c2)C1)[C@H]1C[C@@H]1c1nc2ccccc2[nH]1 [Example 76]
III = O=C(Cc1ccc(C(F)(F)F)cc1)N[C@@H]1CCN(c2cncc(C(F)(F)F)n2)C1 [Example 11]
// smallest IC50 at index 0, largest at the end Note for the reader: the ranking is given by listing the labels in the order requested.
I, II, III
(I: 5.4 nM, II: 67 nM, III: 180 nM)

P = O=C(Cc1ccc(C2CC2)cc1)N[C@@H]1CCN(c2cc(OCC(F)(F)F)ccn2)C1 [Example 127]
Q = Cc1ncoc1-c1ccc(CC(=O)N[C@@H]2CCN(c3cncc(C(F)(F)F)c3)C2)cc1 [Example 133]
R = COc1ncc(N2CC[C@@H](NC(=O)Cc3ccc(C(C)C)cc3)C2)cc1C(F)(F)F [Example 110]
Hey, quick one: sort these by IC50, low to high? List the labels according to the requested ordering.
Q, R, P
(Q: 55 nM, R: 290 nM, P: 1100 nM)

A = O=C(Cc1ccc2ncccc2c1)N[C@@H]1CCN(c2cncc(C(F)(F)F)c2)C1 [Example 77]
B = CC(C)Cc1ccc(C(C)C(=O)N[C@@H]2CCN(c3cncc(C(F)(F)F)c3)C2)cc1 (stereo partly shown) [Example 17]
Would you mind telling me which has the lower recorded IC50 between A and B ? Record your answer as the label of the chosen record.
A
